- target under test: T1, β1-integrin chain on HT29 wt cells (α5-chain negative) (human, UniProt P05556 21-798)
- T1 construct: whole, on cells; Negative cell control: β1 present at high density, α5 absent
- T1 sequence (P05556 21-798): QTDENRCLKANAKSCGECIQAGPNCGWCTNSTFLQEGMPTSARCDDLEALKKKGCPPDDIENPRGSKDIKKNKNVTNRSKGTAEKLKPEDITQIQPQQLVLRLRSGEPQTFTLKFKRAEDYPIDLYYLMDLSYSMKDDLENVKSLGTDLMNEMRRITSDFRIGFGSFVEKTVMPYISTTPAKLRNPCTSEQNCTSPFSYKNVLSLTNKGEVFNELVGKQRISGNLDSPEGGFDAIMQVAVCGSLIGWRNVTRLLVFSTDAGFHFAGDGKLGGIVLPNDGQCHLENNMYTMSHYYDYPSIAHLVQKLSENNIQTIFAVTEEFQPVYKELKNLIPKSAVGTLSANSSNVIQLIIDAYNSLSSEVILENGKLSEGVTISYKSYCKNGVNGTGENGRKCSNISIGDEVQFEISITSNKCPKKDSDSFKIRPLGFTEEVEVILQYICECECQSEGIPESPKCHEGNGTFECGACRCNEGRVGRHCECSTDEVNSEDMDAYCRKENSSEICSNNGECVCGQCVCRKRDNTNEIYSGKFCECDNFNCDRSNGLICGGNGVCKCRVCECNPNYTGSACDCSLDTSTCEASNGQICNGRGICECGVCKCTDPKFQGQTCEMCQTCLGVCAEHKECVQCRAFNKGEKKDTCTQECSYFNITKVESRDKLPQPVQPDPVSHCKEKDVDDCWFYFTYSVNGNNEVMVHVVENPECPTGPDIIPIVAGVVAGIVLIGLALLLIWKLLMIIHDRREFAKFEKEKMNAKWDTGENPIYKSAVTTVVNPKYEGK
- experiment: FACS, HT29 cells (α5-chain negative)
readout kind: binding result

MOR04977 IgG1 (antibody, V domains shown) VH: QVQLVESGGGLVQPGGSLRLSCAASGFTFSSYGMSWVRQAPGKGLEWVSFIEPKWRGGATHYAASVKGRFTISRDNSKNTLYLQMNSLRAEDTAVYYCARGLGDYGHHHGLSGIFDYWGQGTLVTVSS VL: DIQMTQSPSSLSASVGDRVTITCRASQGISSNLNWYQQKPGKAPKLLIYAASNLQSGPSRFSGSGSGTDFTLTISSLQPEDFATYYCQQYSSNPQTFGQGTKVEIKR	no binding
MOR04624 IgG1 (antibody, V domains shown, Human IgG1 kappa (MorphoSys HuCAL IgG Vector Kit); also called IgG1 MOR04624) VH: QVQLVESGGGLVQPGGSLRLSCAASGFTFSSYGMSWVRQAPGKGLEWVSSISYSDSNTYYADSVKGRFTISRDNSKNTLYLQMNSLRAEDTAVYYCARGLGDYGHHHGLSGIFDYWGQGTLVTVSS VL: DIQMTQSPSSLSASVGDRVTITCRASQGISSNLNWYQQKPGKAPKLLIYAASNLQSGPSRFSGSGSGTDFTLTISSLQPEDFAVYYCQQYSDQSYTFGQGTKVEIKR	no binding
MOR04985 IgG1 (antibody, V domains shown) VH: QVQLVESGGGLVQPGGSLRLSCAASGFTFSSYGMSWVRQAPGKGLEWVSGIRAKQSGYATDYAAPVKGRFTISRDNSKNTLYLQMNSLRAEDTAVYYCARGLGDYGHHHGLSGIFDYWGQGTLVTVSS VL: DIQMTQSPSSLSASVGDRVTITCRASQGISSNLNWYQQKPGKAPKLLIYAASNLQSGPSRFSGSGSGTDFTLTISSLQPEDFAVYYCQQYSDQSYTFGQGTKVEIKR	no binding
MOR04975 IgG1 (antibody, V domains shown) VH: QVQLVESGGGLVQPGGSLRLSCAASGFTFSSYGMSWVRQAPGKGLEWVSGIRAKQSGYATDYAAPVKGRFTISRDNSKNTLYLQMNSLRAEDTAVYYCARGLGDYGHHHGLSGIFDYWGQGTLVTVSS VL: DIQMTQSPSSLSASVGDRVTITCRASQGISSNLNWYQQKPGKAPKLLIYAASNLQSGPSRFSGSGSGTDFTLTISSLQPEDFATYYCQQYEFGIQTFGQGTKVEIKR	no binding
